The entries below are paired with their reported TGI.
- Test system: KM12 colon
- METHOD_NOTES: NCI tumour cell line growth inhibition, 48 h

N#CCC(=O)N/N=C(\C(=O)Nc1ccc(Cl)c(Cl)c1)C1CN(c2ccccc2)N=C1N (centres undefined)	> 100 µM
CN(Cc1ccccc1)C(=NC#N)N(C)Cc1ccccc1	> 100 µM
O=C(Oc1ccc(Cl)cc1[N+](=O)[O-])c1ccccc1	> 100 µM
CC[C@]12C=CCN3CC[C@@]4(c5cc(Br)c(OC)cc5N(C)[C@H]4[C@@](O)(C(=O)N[C@@H](Cc4ccc(O)cc4)C(=O)OC)[C@@H]1O)[C@@H]32	38.5 µM
C[C@H]1[C@H]2[C@H]3CC[C@@H]4[C@@]5(C)C/C(=C/c6cccnc6)C(=O)C(C)(C)[C@@H]5CC[C@@]4(C)[C@]3(C)CC[C@]23CO[C@]1(C)[C@@H](C(=O)/C=C\c1cccnc1)C3	1.86 µM

*Q* What TGI appears in the records for this compound with KM12 colon? O=C1C(Cl)C(c2cc3cc(Br)ccc3nc2Cl)N1c1ccc(Cl)cc1 (centres undefined)
*A* > 25 µM

*Q* Same again, this time with O=C1c2ccccc2-c2c1c1c(O)cccc1n2-c1ccccc1
*A* > 100 µM

*Q* Same again, this time with O=C(c1cc2c(c3ccccc13)NCCN=C2C(F)(F)F)C(F)(F)F
*A* > 100 µM

*Q* Same again, this time with Cc1nn(C)cc1P(=S)(c1ccccc1)c1ccccc1
*A* > 100 µM

###

- Test system: MDA-MB-435
- METHOD_NOTES: NCI tumour cell line growth inhibition, 48 h
MEASURE_NAME: TGI

Consider the following illustrative entries.
Cc1cc(O)cc(C)c1/C=C/c1cncc(-c2nn[nH]n2)c1	> 25 µM
Cc1nc2c(o1)C(=O)c1ccccc1C2=Nc1ccc(N2CCOCC2)cc1	3.58 µM
COc1cccc(Cc2cc(=O)c3ccc(C)nc3[nH]2)c1	> 100 µM
COc1ccc2nc3ccccc3c(NCCCN(C)CCCl)c2c1	1.54 µM
O=C(NCc1ccco1)c1ccc(NC2=C(Cl)C(=O)N(Cc3ccccc3)C2=O)cc1	37.6 µM
CN(C)/C=N/NC(=O)/C(C#N)=C/N(C)C	> 100 µM

*Q* Quick one: TGI for O=C1C(=Cc2cccc(O)c2)N=C(c2ccccc2)N1n1c(-c2ccccc2)nc2ccccc2c1=O ?
*A* > 100 µM

*Q* Same again, this time with Cc1ncsc1-c1ccc(CNC(=O)[C@@H]2C[C@@H](O)CN2C(=O)[C@@H](NC(=O)C2(C#N)CC2)C(C)(C)C)cc1
*A* > 100 µM

*Q* Same again, this time with Cc1cc(Oc2ccc3nc(COc4ccc(CC5SC(=O)NC5=O)cc4)n(C)c3c2)cc(C)c1N (stereo not drawn)
*A* > 100 µM

*Q* Same again, this time with O=C(NCc1ccncc1)C12CC3CC(C1)CC(c1ccc(Cl)cc1)(C3)C2
*A* 25.3 µM

*Q* Same again, this time with O=c1[nH]c(=O)n(C2CC(O)C(CO)O2)cc1OCC1CCCCC1 (stereo not drawn)
*A* > 100 µM

*Q* Same again, this time with Cc1ccc2[nH]c3c(c2c1)C1CCC(C(C)(C)C)CC1C1C(=O)N(c2ccc4c(c2)OCO4)C(=O)C31 (stereo not drawn)
*A* 20.5 µM

*Q* Same again, this time with O=S(=O)(c1ccccc1)C1(CCC2OCCO2)C=CC2(CC1)OCCO2 (stereo not drawn)
*A* > 100 µM

Hey, just so you know, these numbers are from PubChem BioAssay (NCI).
